system: HOP-62 NSCLC; experiment: NCI-60 one-dose screen, 48 h (100 = growth as untreated, 0 = no growth, -100 = all killed); settings: 10 µM unless noted
About 83,000 compounds went through this panel and 20% of them were active in at least one assay; those are over-represented in the sample as a whole.
Field: growth. Provide a value for each of the compounds that follow.
# value in %; strip the unit string

[in] Read the entry CC(C)(C)CC(C)(C)c1ccc(OCCOCC[N+](C)(C)CC(=O)[O-])cc1 and write its reported growth.
[out] 106

[in] Read the entry COc1cc(-c2cc3ncccc3c3nc(N)c4cccnc4c23)cc(OC)c1OC and write its reported growth.
[out] 27.3

[in] Read the entry Cn1c(=O)c2c(ncn2CCC(=O)Nc2ccc(F)cc2)n(C)c1=O and write its reported growth.
[out] 92.6

[in] Read the entry N#C/C(=C\c1ccc(-c2ccccc2)o1)c1nc(-c2ccco2)cs1 and write its reported growth.
[out] 98.6

[in] Read the entry Cc1nn(-c2ccc(Cl)cc2)c(=O)n1CCn1cnc2ccccc21 and write its reported growth.
[out] 101

[in] Read the entry CN1CCN(c2ccc3nc(-c4[nH]ncc4Nc4ncnc5c4OCCCN5)[nH]c3c2)CC1 and write its reported growth.
[out] -48.4

[in] Read the entry C=C(C)[C@@H]1CC[C@]2(C(=O)N3CCN(CC)CC3)CC[C@]3(C)[C@H](CC[C@@H]4[C@@](C)(CCC(=O)N5CCN(CC)CC5)[C@H](C(=C)C)CC[C@]43C)[C@@H]12 and write its reported growth.
[out] 88.7

[in] Read the entry NS(=O)(=O)c1ccc(CCNC(=O)/C=C/c2ccc(Cl)cc2)cc1 and write its reported growth.
[out] 97.5

[in] Read the entry COc1cc(/C=N/Nc2ncnc3c2c(C)nn3-c2ccc(F)cc2)ccc1O and write its reported growth.
[out] 106

[in] Read the entry COc1cc2nc(Cl)nc(Nc3cccc(C(=O)/C=C/c4ccc(Br)cc4)c3)c2cc1OC and write its reported growth.
[out] 98
